biological target: HLA-DRB1*01:01 (Homo sapiens, UniProt P01903+P01911, A100R/D57E/F55L/F60I/F76Y/I96L/L162R/M171V/P40L/Q125E/R42F/V115G/Y59C); construct: EBV transformed homozygous cell lines were used as sources of MHC molecules; endogenous in cells; host or cells: EBV transformed homozygous cell lines; assay: HLA class II peptide binding, inhibition of radiolabeled peptide binding to purified MHC; conditions: citrullinated 15-mer peptide (X = citrulline); purified HLA-DRB1*01:01; read-out: DRB1*01:01 binding capacity, Cit peptide (IC50 nM)
Square brackets hold non-standard residues; d marks the D form. Peptide text beside a SMILES is read from it. Cit = NC(=O)NCCC[C@H](N)C(=O)O
Measure: IC50
Please provide the amount together with its unit, number first.

Lookup: Look at this molecule and give its reported IC50. CSCC[C@H](NC(=O)[C@H](CCC(N)=O)NC(=O)[C@H](CCCNC(=N)N)NC(=O)[C@H](CCC(=O)O)NC(=O)[C@H](CC(C)C)NC(=O)[C@H](CO)NC(=O)[C@H](CCC(=O)O)NC(=O)[C@H](CC(N)=O)NC(=O)[C@@H](NC(=O)CNC(=O)[C@H](CCCCN)NC(=O)[C@H](CC(C)C)NC(=O)[C@H](C)NC(=O)[C@@H](N)CC(=O)O)[C@@H](C)O)C(=O)N[C@@H](CCCNC(N)=O)C(=O)O [DALKGTNESLERQMX] (H-DALKGTNESLERQM[Cit]-OH)
Found: 24200 nM

###

molecular target: HLA-DRB1*04:01 (Homo sapiens, UniProt P01903+P01911, A100K/A169T/F76Y/I96L/K127E/L162R/M171V/N62H/P40V/Q125Y/R42H/S133A/S149N/S66Y/V115G/V209L/W38E); construct: EBV transformed homozygous cell lines were used as sources of MHC molecules; endogenous in cells; host or cells: EBV transformed homozygous cell lines; assay: HLA class II peptide binding, inhibition of radiolabeled peptide binding to purified MHC; conditions: citrullinated 15-mer (X); purified MHC, inhibition of radiolabeled peptide binding; dash = IC50 >40,000 nM; read-out: DRB1*04:01 binding capacity, Cit peptide (IC50 nM)
Square brackets hold non-standard residues; d marks the D form. Peptide text beside a SMILES is read from it. Cit = NC(=O)NCCC[C@H](N)C(=O)O
Entries and their IC50 values follow.
State the answer as a number, implicitly in nM.

Example entries and their recorded answers appear below.
Molecule	Unit descriptor	IC50
CC[C@H](C)[C@H](NC(=O)[C@H](CCCCN)NC(=O)[C@H](CC(N)=O)NC(=O)[C@H](CCC(N)=O)NC(=O)[C@H](CCC(N)=O)NC(=O)[C@H](CCC(=O)O)NC(=O)[C@H](CC(C)C)NC(=O)[C@H](Cc1ccccc1)NC(=O)[C@H](CCCNC(N)=O)NC(=O)[C@@H](N)C(C)C)C(=O)N[C@@H](CC(C)C)C(=O)N[C@@H](CC(C)C)C(=O)N[C@@H](C)C(=O)N[C@@H](CCC(=O)O)C(=O)N[C@@H](CC(C)C)C(=O)O	nM	6590
CC(C)C[C@H](NC(=O)[C@H](C)NC(=O)[C@H](CC(=O)O)NC(=O)[C@H](CC(N)=O)NC(=O)[C@H](CC(N)=O)NC(=O)[C@H](CCCNC(=N)N)NC(=O)[C@H](CC(N)=O)NC(=O)[C@H](C)NC(=O)[C@H](C)NC(=O)[C@H](CCC(=O)O)NC(=O)[C@H](CO)NC(=O)[C@H](CC(C)C)NC(=O)[C@H](CC(=O)O)NC(=O)[C@H](C)N)C(=O)N[C@@H](CCCNC(N)=O)C(=O)O [ADLSEAANRNNDALX] (H-ADLSEAANRNNDAL[Cit]-OH)	nM	23300

Let's switch to this molecule now.
Lookup: Look at this molecule and give its reported IC50. `CC(C)C[C@H](NC(=O)[C@H](C)NC(=O)[C@H](CO)NC(=O)CN)C(=O)N[C@@H](CCCNC(N)=O)C(=O)N1CCC[C@H]1C(=O)N[C@@H](CO)C(=O)N[C@H](C(=O)N[C@@H](CO)C(=O)N[C@@H](CCCNC(=N)N)C(=O)N[C@@H](CO)C(=O)N[C@@H](CC(C)C)C(=O)N[C@@H](Cc1ccc(O)cc1)C(=O)N[C@@H](C)C(=O)N[C@@H](CO)C(=O)O)[C@@H](C)O`
Found: 1550

###

biological target: HLA-DRB1*01:01 (Homo sapiens, UniProt P01903+P01911, A100R/D57E/F55L/F60I/F76Y/I96L/L162R/M171V/P40L/Q125E/R42F/V115G/Y59C); construct: EBV transformed homozygous cell lines were used as sources of MHC molecules; endogenous in cells; host or cells: EBV transformed homozygous cell lines; experiment: HLA class II peptide binding, inhibition of radiolabeled peptide binding to purified MHC; details: citrullinated peptide as listed (X at Cit position); read-out: DRB1*01:01 binding capacity Cit peptide (IC50 nM)
Square brackets hold non-standard residues; d marks the D form. Peptide text beside a SMILES is read from it. Cit = NC(=O)NCCC[C@H](N)C(=O)O
Entries and their log10(IC50) values follow.
Please interpret these as log10 of IC50 where IC50 is in nM.

Compound	log10(IC50)
CC[C@H](C)[C@H](NC(=O)[C@H](CC(=O)O)NC(=O)[C@H](CCSC)NC(=O)[C@@H]1CCCN1C(=O)[C@H](C)NC(=O)[C@@H](NC(=O)[C@H](CC(=O)O)NC(=O)[C@@H](NC(=O)[C@@H](NC(=O)[C@@H]1CCCN1C(=O)[C@H](CC(C)C)NC(=O)[C@H](CCCNC(N)=O)NC(=O)[C@H](CO)NC(=O)[C@@H](NC(=O)[C@@H](N)CCCCN)[C@@H](C)O)[C@@H](C)CC)[C@@H](C)CC)[C@@H](C)CC)C(=O)O [KTSXLPIIDIAPMDI] (H-KTS[Cit]LPIIDIAPMDI-OH)	2.80
CSCC[C@H](NC(=O)[C@H](Cc1ccc(O)cc1)NC(=O)[C@H](CCC(N)=O)NC(=O)[C@@H](N)CC(C)C)C(=O)N[C@@H](CCCNC(N)=O)C(=O)N[C@@H](C)C(=O)N[C@@H](CC(=O)O)C(=O)N[C@@H](CCC(N)=O)C(=O)N[C@@H](C)C(=O)N[C@@H](C)C(=O)NCC(=O)NCC(=O)N[C@@H](CC(C)C)C(=O)N[C@@H](CCCNC(=N)N)C(=O)N[C@@H](CCC(N)=O)C(=O)O [LQYMXADQAAGGLRQ] (H-LQYM[Cit]ADQAAGGLRQ-OH)	1.20
CSCC[C@H](NC(=O)[C@H](Cc1ccc(O)cc1)NC(=O)[C@H](CCC(N)=O)NC(=O)[C@@H](N)CC(C)C)C(=O)N[C@@H](CCCNC(=N)N)C(=O)N[C@@H](C)C(=O)N[C@@H](CC(=O)O)C(=O)N[C@@H](CCC(N)=O)C(=O)N[C@@H](C)C(=O)N[C@@H](C)C(=O)NCC(=O)NCC(=O)N[C@@H](CC(C)C)C(=O)N[C@@H](CCCNC(N)=O)C(=O)N[C@@H](CCC(N)=O)C(=O)O [LQYMRADQAAGGLXQ] (H-LQYMRADQAAGGL[Cit]Q-OH)	1.81
CSCC[C@H](NC(=O)[C@H](CCC(N)=O)NC(=O)[C@@H](NC(=O)[C@H](CC(N)=O)NC(=O)[C@H](C)NC(=O)[C@@H](NC(=O)[C@H](CC(N)=O)NC(=O)[C@@H]1CCCN1C(=O)[C@H](C)NC(=O)[C@@H](N)CC(C)C)[C@@H](C)O)C(C)C)C(=O)N[C@H](C(=O)N[C@@H](Cc1ccccc1)C(=O)N[C@@H](CC(C)C)C(=O)N[C@@H](CCCNC(N)=O)C(=O)N[C@@H](CC(C)C)C(=O)O)[C@@H](C)O [LAPNTANVQMTFLXL] (H-LAPNTANVQMTFL[Cit]L-OH)	1.73
CC[C@H](C)[C@H](NC(=O)[C@H](CCC(=O)O)NC(=O)[C@@H](NC(=O)[C@H](CC(=O)O)NC(=O)[C@H](CC(N)=O)NC(=O)[C@@H](N)CO)C(C)C)C(=O)N[C@@H](CCCNC(=N)N)C(=O)N[C@@H](C)C(=O)N[C@@H](CCC(=O)O)C(=O)NCC(=O)N[C@@H](CC(N)=O)C(=O)N[C@@H](CO)C(=O)N[C@@H](CCCNC(N)=O)C(=O)N[C@@H](Cc1ccccc1)C(=O)N[C@H](C(=O)O)[C@@H](C)O [SNDVEIRAEGNSXFT] (H-SNDVEIRAEGNS[Cit]FT-OH)	1.96

Lookup: Look at this compound and give its reported log10(IC50). CC[C@H](C)[C@H](N)C(=O)N[C@@H](CCCNC(=N)N)C(=O)N[C@@H](C)C(=O)N[C@@H](CCC(=O)O)C(=O)NCC(=O)N[C@@H](CC(N)=O)C(=O)N[C@@H](CO)C(=O)N[C@@H](CCCNC(N)=O)C(=O)N[C@@H](Cc1ccccc1)C(=O)N[C@H](C(=O)N[C@@H](Cc1ccc(O)cc1)C(=O)N[C@H](C(=O)N[C@@H](C)C(=O)N[C@@H](CC(C)C)C(=O)N[C@@H](CCCCN)C(=O)O)[C@@H](C)O)[C@@H](C)O [IRAEGNSXFTYTALK] (H-IRAEGNS[Cit]FTYTALK-OH)
Found: -0.22

Lookup: Look at this compound and give its reported log10(IC50). CC[C@H](C)[C@H](NC(=O)[C@H](CCC(=O)O)NC(=O)[C@@H](NC(=O)[C@H](CC(=O)O)NC(=O)[C@H](CC(N)=O)NC(=O)[C@@H](N)CO)C(C)C)C(=O)N[C@@H](CCCNC(N)=O)C(=O)N[C@@H](C)C(=O)N[C@@H](CCC(=O)O)C(=O)NCC(=O)N[C@@H](CC(N)=O)C(=O)N[C@@H](CO)C(=O)N[C@@H](CCCNC(=N)N)C(=O)N[C@@H](Cc1ccccc1)C(=O)N[C@H](C(=O)O)[C@@H](C)O [SNDVEIXAEGNSRFT] (H-SNDVEI[Cit]AEGNSRFT-OH)
Found: 3.18

Lookup: Look at this compound and give its reported log10(IC50). CC[C@H](C)[C@H](N)C(=O)N[C@@H](CCCNC(N)=O)C(=O)N[C@@H](C)C(=O)N[C@@H](CCC(=O)O)C(=O)NCC(=O)N[C@@H](CC(N)=O)C(=O)N[C@@H](CO)C(=O)N[C@@H](CCCNC(=N)N)C(=O)N[C@@H](Cc1ccccc1)C(=O)N[C@H](C(=O)N[C@@H](Cc1ccc(O)cc1)C(=O)N[C@H](C(=O)N[C@@H](C)C(=O)N[C@@H](CC(C)C)C(=O)N[C@@H](CCCCN)C(=O)O)[C@@H](C)O)[C@@H](C)O [IXAEGNSRFTYTALK] (H-I[Cit]AEGNSRFTYTALK-OH)
Found: -0.21

Lookup: Look at this compound and give its reported log10(IC50). CC[C@H](C)[C@H](NC(=O)[C@@H](NC(=O)[C@@H](NC(=O)[C@H](CCCCN)NC(=O)CN)[C@@H](C)O)C(C)C)C(=O)N[C@@H](CCC(=O)O)C(=O)N[C@@H](Cc1ccc(O)cc1)C(=O)N[C@@H](CCCNC(N)=O)C(=O)N[C@@H](CO)C(=O)N[C@@H](CCC(N)=O)C(=O)N[C@@H](CCCCN)C(=O)N[C@H](C(=O)N[C@@H](CO)C(=O)N[C@@H](CCCNC(=N)N)C(=O)N[C@@H](CC(C)C)C(=O)O)[C@@H](C)O [GKTVIEYXSQKTSRL] (H-GKTVIEY[Cit]SQKTSRL-OH)
Found: 0.85

Source listed as paper PMC5421785.
